# System: HMG-CoA reductase
# protocol_text: HMG-CoA Reductase Inhibition Assay (in vitro, intrinsic inhibitory activity)
# Format: biochemical
# setup_conditions: compactin assigned a value of 100; IC50 of test compound compared with that of compactin determined simultaneously; tested as sodium salt of dihydroxy acid form; solubilized rat liver microsomal enzyme
# Experimental: The intrinsic HMG-CoA reductase inhibition activity of the claimed compounds is measured in the in vitro protocol published in J. Med. Chem., 28, P. 347-358 (1985) and described below: Isolation of HMG-CoA Reductase. Male Holtzman Sprague-Dawley rate (225-250 g) were kept on reversed lighting and fed Purina rat chow containing 3% cholestyramine for 7 days preceding their sacrifice by CO2 asphyxiation. Livers were removed 6 hours into the dark cycle and used immediately to prepare microsomes. […]
observed_property: Relative Potency

I. C[C@H]1C=C2C=C[C@H](C)[C@H](CC[C@@H](O)C[C@@H](O)CC(=O)O)[C@H]2[C@@H](OC(=O)C2(C)CCCC2)C1
II. C[C@H]1C=C2C=C[C@H](C)[C@H](CC[C@@H](O)C[C@@H](O)CC(=O)O)[C@H]2[C@@H](OC(=O)C2(C)CC2)C1
Please indicate which item has the smaller measured Relative Potency: I versus II The response must carry the label of the picked entry. II
(II: 76, I: 188)

P. C[C@H]1C=C2C=C[C@H](C)[C@H](CC[C@@H](O)C[C@@H](O)CC(=O)O)[C@H]2[C@@H](OC(=O)C2(Cc3ccc(O)cc3)CCC2)C1
Q. C[C@H]1C=C2C=C[C@H](C)[C@H](CC[C@@H](O)C[C@@H](O)CC(=O)O)[C@H]2[C@@H](OC(=O)C2(CCCO)CCC2)C1
Which gives the smaller Relative Potency number: P or Q ? Mark your answer with the label of the selected entry. Q
(Q: 100, P: 200)

I. C[C@H]1C=C2C=C[C@H](C)[C@H](CC[C@@H](O)C[C@@H](O)CC(=O)O)[C@H]2[C@@H](OC(=O)C2(C)CCC2)C1
II. C[C@H]1C=C2C=C[C@H](C)[C@H](CC[C@@H](O)C[C@@H](O)CC(=O)O)[C@H]2[C@@H](OC(=O)C2(CO)CCC2)C1
Between I and II , which one shows the larger Relative Potency value? Record your answer as the label of the chosen record. I

###

# System: HMG-CoA reductase
# protocol_text: HMG-CoA Reductase Inhibition Assay (in vitro, intrinsic inhibitory activity)
# Assay type: biochemical
# setup_conditions: compactin assigned a value of 100; IC50 of test compound compared with that of compactin determined simultaneously; tested as sodium salt of dihydroxy acid form; solubilized rat liver microsomal enzyme
observed_property: Relative Potency

| query_smiles | recorded_number |
| --- | --- |
| CSC1(C(=O)O[C@H]2C[C@@H](C)C=C3C=C[C@H](C)[C@H](CC[C@@H](O)C[C@@H](O)CC(=O)O)[C@H]32)CCCC1 | 167 |
| C[C@H]1C=C2C=C[C@H](C)[C@H](CC[C@@H](O)C[C@@H](O)CC(=O)O)[C@H]2[C@@H](OC(=O)C2(Cc3ccccc3)CCC2)C1 | 156 |
| CSC1(C(=O)O[C@H]2C[C@@H](C)C=C3C=C[C@H](C)[C@H](CC[C@@H](O)C[C@@H](O)CC(=O)O)[C@H]32)CCC1 | 240 |
| C[C@H]1C=C2C=C[C@H](C)[C@H](CC[C@@H](O)C[C@@H](O)CC(=O)O)[C@H]2[C@@H](OC(=O)C2(C)CCCCC2)C1 | 217 |
